Sourced from ChEMBL document CHEMBL1155163

Test system: Escherichia coli
Assay: Antimicrobial activity against Escherichia coli ATCC 25922 after 20 hrs
Assay type: functional
Settings: ATCC 25922, 20 h
reported metric: MIC

Some compounds with known MIC results, for comparison:
{"columns": ["molecular string", "MIC"],
 "data": [
  ["Nc1ccn([C@@H]2O[C@H](CO)[C@@H](O)C2(F)F)c(=O)n1", "> 1000 µM"],
  ["Nc1nc(F)nc2c1ncn2[C@@H]1O[C@H](CO)[C@@H](O)[C@@H]1O", "> 100 µM"],
  ["CCc1cn([C@H]2C[C@H](O)[C@@H](CO)O2)c(=O)[nH]c1=O", "> 316 µM"],
  ["Nc1ccn([C@@H]2O[C@H](CO)[C@@H](O)[C@@H]2O)c(=O)n1", "> 1000 µM"],
  ["O=c1[nH]c(=O)n([C@H]2C[C@H](O)[C@@H](CO)O2)cc1F", "1 µM"],
  ["Nc1nc(Cl)nc2c1ncn2[C@H]1C[C@H](O)[C@@H](CO)O1", "> 100 µM"]
]}

--- query ---
The recorded MIC for entry Cc1cn([C@H]2C[C@H](N=[N+]=[N-])[C@@H](CO)O2)c(=O)[nH]c1=O equals 10 µM

----------
Test system: Staphylococcus aureus
Assay: Antimicrobial activity against Staphylococcus aureus CCM 885 after 20 hrs
Type: functional
Conditions: CCM 885, 20 h
reported metric: MIC

Answered examples (5):
{"columns": ["compound", "measured"],
 "data": [
  ["CCc1cn([C@H]2C[C@H](O)[C@@H](CO)O2)c(=O)[nH]c1=O [EDOXUDINE]", "> 316 µM"],
  ["Cc1cn([C@H]2C[C@H](N=[N+]=[N-])[C@@H](CO)O2)c(=O)[nH]c1=O [ZIDOVUDINE]", "> 316 µM"],
  ["Nc1nc(F)nc2c1ncn2[C@@H]1O[C@H](CO)[C@@H](O)[C@@H]1O [FLUDARABINE]", "> 100 µM"],
  ["Nc1ccn([C@@H]2O[C@H](CO)[C@@H](O)C2(F)F)c(=O)n1 [GEMCITABINE]", "0.1 µM"],
  ["Nc1nc(Cl)nc2c1ncn2[C@H]1C[C@H](O)[C@@H](CO)O1 [CLADRIBINE]", "> 100 µM"]
]}

Field: MIC. Fill in for each record below.
1. Nc1ccn([C@@H]2O[C@H](CO)[C@@H](O)[C@@H]2O)c(=O)n1 [CYTARABINE]
2. O=c1[nH]c(=O)n([C@H]2C[C@H](O)[C@@H](CO)O2)cc1F [FLOXURIDINE]

1: > 1000 µM; 2: 0.00316 µM

----------
Tested on: Staphylococcus aureus
Experiment: Antimicrobial activity against Staphylococcus aureus ATCC 29213 after 20 hrs
Assay type: functional
Settings: ATCC 29213, 20 h
reported metric: MIC

Previously resolved entries follow.
{"columns": ["molecular string", "system under test", "MIC"],
 "data": [
  ["Nc1ccn([C@@H]2O[C@H](CO)[C@@H](O)[C@@H]2O)c(=O)n1", "Staphylococcus aureus", "> 1000 µM"],
  ["Cc1cn([C@H]2C[C@H](N=[N+]=[N-])[C@@H](CO)O2)c(=O)[nH]c1=O", "Staphylococcus aureus", "> 316 µM"],
  ["CCc1cn([C@H]2C[C@H](O)[C@@H](CO)O2)c(=O)[nH]c1=O", "Staphylococcus aureus", "> 316 µM"],
  ["Nc1ccn([C@@H]2O[C@H](CO)[C@@H](O)C2(F)F)c(=O)n1", "Staphylococcus aureus", "0.1 µM"],
  ["O=c1[nH]c(=O)n([C@H]2C[C@H](O)[C@@H](CO)O2)cc1F", "Staphylococcus aureus", "0.01 µM"],
  ["Nc1nc(Cl)nc2c1ncn2[C@H]1C[C@H](O)[C@@H](CO)O1", "Staphylococcus aureus", "> 100 µM"]
]}

The compound listed as Nc1nc(F)nc2c1ncn2[C@@H]1O[C@H](CO)[C@@H](O)[C@@H]1O shows MIC equal to > 100 µM

----------
Provide the reported MIC of each item.
Tested on: Streptococcus sp.
Assay: Antimicrobial activity against Streptococcus sp. 07706-1 after 20 hrs
Assay type: functional

{"columns": ["molecular string", "reported metric", "measured"],
 "data": [
  ["Nc1nc(F)nc2c1ncn2[C@@H]1O[C@H](CO)[C@@H](O)[C@@H]1O", "MIC", "> 100 µM"],
  ["Nc1ccn([C@@H]2O[C@H](CO)[C@@H](O)[C@@H]2O)c(=O)n1", "MIC", "> 1000 µM"],
  ["CCc1cn([C@H]2C[C@H](O)[C@@H](CO)O2)c(=O)[nH]c1=O", "MIC", "> 316 µM"]
]}

Turning to the following compound.
The recorded MIC with Streptococcus sp. for Cc1cn([C@H]2C[C@H](N=[N+]=[N-])[C@@H](CO)O2)c(=O)[nH]c1=O was > 316 µM
